Entries and their inhibition at 10 µM values follow.
# assaySystem: Cathepsin K (Homo sapiens)
# Construct: purchased Biovision K150-100
# protocolDescription: Preliminary screening of Cathepsin K (Cathepsin K Inhibitor Screening Kit K150-100, Biovision)
# Type: biochemical
# conditionDescription: 10 μM compound; replicate 1; relative inhibition rate vs 10 μM FF-FMK control; read-out: Inhibition % (10 μM) replicate 1
Numbers only; they are read as %.

// worked examples, inhibition at 10 µM included
- CCOC(=O)[C@H]1O[C@@H]1C(=O)N[C@@H](CCSC)C(=O)N1CCSC1: 44.3
- CCCNC(=O)[C@H](CCSC)NC(=O)[C@H]1O[C@@H]1C(=O)OCC: 31.6
- CCCC(C)NC(=O)[C@H](CCSC)NC(=O)[C@H]1O[C@@H]1C(=O)OCC (stereo partly shown): 33

Continue with the compound presented below.
Request: State the recorded inhibition at 10 µM for this entry: CCCNC(=O)[C@H](CSCc1ccccc1)NC(=O)[C@H]1O[C@@H]1C(=O)OCC
Response: 34.8

----------
# assaySystem: Cathepsin K (Homo sapiens, UniProt P43235)
# Construct: purchased Biovision K150-100
# Sequence (P43235 115-329): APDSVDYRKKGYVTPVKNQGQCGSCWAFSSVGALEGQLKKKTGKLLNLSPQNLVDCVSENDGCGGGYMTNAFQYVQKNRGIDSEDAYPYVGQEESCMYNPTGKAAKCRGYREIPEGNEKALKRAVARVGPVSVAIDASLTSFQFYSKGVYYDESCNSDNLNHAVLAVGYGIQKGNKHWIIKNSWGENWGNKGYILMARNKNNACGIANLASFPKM
# protocolDescription: Preliminary screening of Cathepsin K (Cathepsin K Inhibitor Screening Kit K150-100, Biovision)
# Type: biochemical
# conditionDescription: 1 μM compound; replicate 2; relative inhibition rate vs 10 μM FF-FMK control; read-out: Inhibition % (1 μM) replicate 2
# Protocol: 1. Method for preliminary screening of Cathepsin K: Preliminary screening of Cathepsin K was performed by using Cathepsin K Inhibitor Screening Kit (Product No. K150-100) from Biovision Company. 1.1.1 Preparation of Cathepsin K enzyme solution: Cathepsin K enzyme (40 μl) and Cathepsin K reagent (80 μl) were added to Cathepsin K buffer (3.88 ml), and were mixed well, to prepare Cathepsin K enzyme solution with a volume of 4 ml, which was placed on ice for further use. […]
quantityKind: inhibition at 1 µM (%)
Numbers only; they are read as %.

• CCCC(C)NC(=O)[C@H](CCSC)NC(=O)[C@H]1O[C@@H]1C(=O)OCC (stereo partly drawn) = 36.6
• CCOC(=O)[C@H]1O[C@@H]1C(=O)N[C@@H](CCSC)C(=O)NC(C)CC (stereo partly drawn) = 38.7

Request: State the recorded inhibition at 1 µM for this entry: CCOC(=O)[C@H]1O[C@@H]1C(=O)N[C@@H](CCSC)C(=O)N1CCSC1
Response: 37.9

----------
# assaySystem: Cathepsin S (Homo sapiens)
# Construct: purchased Biovision K149-100
# Sequence (P25774 115-331): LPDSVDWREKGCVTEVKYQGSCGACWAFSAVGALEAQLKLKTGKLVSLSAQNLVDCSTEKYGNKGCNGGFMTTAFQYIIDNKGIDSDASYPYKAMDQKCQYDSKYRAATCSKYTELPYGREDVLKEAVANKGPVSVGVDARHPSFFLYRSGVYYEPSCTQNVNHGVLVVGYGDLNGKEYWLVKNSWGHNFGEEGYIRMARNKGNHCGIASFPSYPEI
# protocolDescription: IC50 determination against Cathepsin S (Biovision kit K149-100)
# Format: biochemical
# conditionDescription: CTSS; Exp-2; read-out: IC50 (nM) Exp-2
# Procedure: 2. Method for determining IC50 of compounds against cathepsin: IC50 of compounds against Cathepsin S was determined by using Cathepsin S Inhibitor Screening Kit (Product No. K149-100) from Biovision Company. 2.1.1.4 Preparation of Cathepsin S solution: Cathepsin S enzyme (46 μl) was added to Cathepsin S buffer (2254 μl), and mixed well, to prepare Cathepsin S enzyme solution with a volume of 2.3 ml, which was placed on ice for further use. […]
quantityKind: IC50

// worked examples, IC50 included
• CCOC(=O)[C@H]1O[C@@H]1C(=O)N[C@@H](CCSC)C(=O)NC(CC)CC = 8750 nM
• CCCNC(=O)[C@H]1O[C@@H]1C(=O)N[C@H](C(=O)N1CCC[C@H]1C(=O)O)[C@@H](C)CC [zxy-60, CA-074, reference compound] = 3230 nM

Request: State the recorded IC50 for this entry: CCOC(=O)[C@H]1O[C@@H]1C(=O)N[C@@H](CCSC)C(=O)NCCCc1ccccc1
Response: 9450 nM

----------
# assaySystem: Cathepsin K (Homo sapiens)
# Construct: purchased Biovision K150-100
# protocolDescription: Preliminary screening of Cathepsin K (Cathepsin K Inhibitor Screening Kit K150-100, Biovision)
# Format: biochemical
# conditionDescription: 10 μM compound; replicate 2; relative inhibition rate vs 10 μM FF-FMK control; read-out: Inhibition % (10 μM) replicate 2
Entries and their inhibition at 10 µM values follow.
Numbers only; they are read as %.

// worked examples, inhibition at 10 µM included
* CCCNC(=O)[C@H](CCSC)NC(=O)[C@H]1O[C@@H]1C(=O)OCC | 34.9
* CCOC(=O)[C@H]1O[C@@H]1C(=O)N[C@@H](CCSC)C(=O)NC(CC)CC | 99.5
* CCCCCCNC(=O)[C@H](CSCc1ccccc1)NC(=O)[C@H]1O[C@@H]1C(=O)OCC | 48.2
* CCCCCCNC(=O)[C@H](CCSC)NC(=O)[C@H]1O[C@@H]1C(=O)OCC | 95.7

Request: Hi! What's the reported inhibition at 10 µM for CCOC(=O)[C@H]1O[C@@H]1C(=O)N[C@@H](CSCc1ccccc1)C(=O)NCC(C)(C)C on Cathepsin K (Homo sapiens)?
Response: 48.6

Request: Repeat with CCOC(=O)[C@H]1O[C@@H]1C(=O)N[C@@H](CCSC)C(=O)NCCCCc1ccccc1
Response: 94.9

Request: Repeat with CCOC(=O)[C@H]1O[C@@H]1C(=O)N[C@@H](CCSC)C(=O)NCC(C)C
Response: 28.8

----------
Entries and their inhibition at 10 µM values follow.
# assaySystem: Cathepsin K (Homo sapiens)
# Construct: purchased Biovision K150-100
# protocolDescription: Preliminary screening of Cathepsin K (Cathepsin K Inhibitor Screening Kit K150-100, Biovision)
# Assay type: biochemical
# conditionDescription: 10 μM compound; replicate 2; relative inhibition rate vs 10 μM FF-FMK control; read-out: Inhibition % (10 μM) replicate 2
# Procedure: 1. Method for preliminary screening of Cathepsin K: Preliminary screening of Cathepsin K was performed by using Cathepsin K Inhibitor Screening Kit (Product No. K150-100) from Biovision Company. 1.1.1 Preparation of Cathepsin K enzyme solution: Cathepsin K enzyme (40 μl) and Cathepsin K reagent (80 μl) were added to Cathepsin K buffer (3.88 ml), and were mixed well, to prepare Cathepsin K enzyme solution with a volume of 4 ml, which was placed on ice for further use. […]
Kindly write the number and append the unit.

// worked examples, inhibition at 10 µM included
- CCOC(=O)[C@H]1O[C@@H]1C(=O)N[C@@H](CCSC)C(=O)NCC(C)(C)C [Compound 30]: 31.7%
- CCOC(=O)[C@H]1O[C@@H]1C(=O)N[C@@H](CCSC)C(=O)N1CCCCC1CC (stereo partly drawn) [Compound 35]: 61.1%
- CCOC(=O)[C@H]1O[C@@H]1C(=O)N[C@@H](CCSC)C(=O)N1CCC(c2ccccc2)CC1 [Compound 13]: 106%
- CCOC(=O)[C@H]1O[C@@H]1C(=O)N[C@@H](CCSC)C(=O)NCCc1cccc(F)c1 [Compound 34]: 95.7%
- CCOC(=O)[C@H]1O[C@@H]1C(=O)N[C@@H](CSCc1ccccc1)C(=O)NCCc1ccc(C)cc1 [Compound 21]: 53%

Continue with the compound presented below.
Request: State the recorded inhibition at 10 µM for this entry: CCOC(=O)[C@H]1O[C@@H]1C(=O)N[C@@H](CSCc1ccccc1)C(=O)NC(C)CC (stereo partly drawn) [Compound 19]
Response: 27.9%

----------
# assaySystem: Cathepsin K (Homo sapiens)
# Construct: purchased Biovision K150-100
# protocolDescription: IC50 determination against Cathepsin K (Biovision kit K150-100)
# Type: biochemical
# conditionDescription: CTSK; average of Exp-1 and Exp-2; read-out: Ave of IC50
pIC50: −log10 of the molar value.
Decision: pIC50 compared against 6; not below it gives Fulfilled, below it gives Not fulfilled.

• CCOC(=O)[C@H]1O[C@@H]1C(=O)N[C@@H](CCSC)C(=O)NCCc1cccc(F)c1 = Fulfilled

Request: Answer whether pIC50 of CCOC(=O)[C@H]1O[C@@H]1C(=O)N[C@@H](CCSC)C(=O)NCCCc1ccccc1 is greater than or equal to 6.
Response: Not fulfilled

Request: Repeat with CCOC(=O)[C@H]1O[C@@H]1C(=O)N[C@@H](CCSC)C(=O)NC(CC)CC
Response: Not fulfilled

Request: Repeat with CCCNC(=O)[C@H]1O[C@@H]1C(=O)N[C@H](C(=O)N1CCC[C@H]1C(=O)O)[C@@H](C)CC [zxy-60, CA-074, reference compound]
Response: Fulfilled

Request: Repeat with CCOC(=O)[C@H]1O[C@@H]1C(=O)N[C@@H](CC(C)C)C(=O)NCCC(C)C [zxy-37, E64d, reference compound]
Response: Fulfilled

Request: Repeat with CCOC(=O)[C@H]1O[C@@H]1C(=O)N[C@@H](CCSC)C(=O)N1CCC(c2ccccc2)CC1
Response: Fulfilled

----------
# assaySystem: Cathepsin K (Homo sapiens, UniProt P43235)
# Construct: purchased Biovision K150-100
# protocolDescription: IC50 determination against Cathepsin K (Biovision kit K150-100)
# Format: biochemical
# conditionDescription: CTSK; Exp-2; read-out: IC50 (nM) Exp-2
quantityKind: IC50 (nM)
Numbers only; they are read as nM.

// worked examples, IC50 included
- CCOC(=O)[C@H]1O[C@@H]1C(=O)N[C@@H](CCSC)C(=O)NCCc1cccc(F)c1: 448
- CCOC(=O)[C@H]1O[C@@H]1C(=O)N[C@@H](CC(C)C)C(=O)NCCC(C)C [zxy-37, E64d, reference compound]: 465
- CCOC(=O)[C@H]1O[C@@H]1C(=O)N[C@@H](CCSC)C(=O)NC(CC)CC: 1610

Continue with the compound presented below.
Request: State the recorded IC50 for this entry: CCOC(=O)[C@H]1O[C@@H]1C(=O)N[C@@H](CCSC)C(=O)NCCCCc1ccccc1
Response: 606

Origin of measurements: patent US10647690B2
